Target: hDM2 (Homo sapiens)
Construct: gene MDM2; 15N-labelled for NMR; the anisotropy footnote prints hDM2_17-25, apparently a misprint of 17-125
Test: fluorescence anisotropy competition, displacement of fluorescein-labelled p53 tracer peptide
Format: binding
Conditions: read-out: Fluorescence anisotropy^[c] IC50
Text: fluorescence anisotropy competition, displacement of fluorescein-labelled p53 tracer peptide on hDM2
pIC50: −log10 of the molar value.
Measurement Type: pIC50

O=C1Nc2cc(Cl)ccc2C1c1c[nH]c2cc(Cl)ccc12 (centres unmarked) | 6.03
O=C(COC1CCc2cc(Cl)ccc21)N1CCC(c2ccccc2)C1 (centres unmarked) [P2] | 4.82

----------
molecular target: hDM2 (Homo sapiens); construct: gene MDM2; 15N-labelled for NMR; the anisotropy footnote prints hDM2_17-25, apparently a misprint of 17-125; test: 1H-15N HSQC NMR titration; conditions: read-out: NMR Binding^[d] (K d/μM)
Measurement Type: Kd (µM)

CN(C(=O)C(=O)c1ccc(Cl)cc1)c1ccc(Cl)cc1 | 35
O=C(COC1CCc2cc(Cl)ccc21)N1CCC(c2ccccc2)C1 (centres unmarked) [P2] | 34
